Target: Phospholipase A2 (Homo sapiens, UniProt P04054)
Sequence (P04054 whole entry): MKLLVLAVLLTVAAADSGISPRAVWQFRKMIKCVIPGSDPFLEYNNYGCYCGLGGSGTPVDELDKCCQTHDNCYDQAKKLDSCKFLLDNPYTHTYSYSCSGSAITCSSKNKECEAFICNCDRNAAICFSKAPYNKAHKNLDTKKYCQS
Assay: Inhibition of recombinant human secretory phospholipase A2 (sPLA2), chromogenic screening assay.
pIC50: −log10 of the molar value.
Property Name: pIC50

[
  {
    "Molecule": "CCc1c(C(=O)C(N)=O)c2c(OCC(=O)O)cccn2c1Cc1cccc(C(F)(F)F)c1",
    "Target System": "Phospholipase A2 (Homo sapiens, UniProt P04054)",
    "pIC50": 8.05
  },
  {
    "Molecule": "CCCC(C)Cc1c(CC)c(C(=O)C(N)=O)c2c(OCC(=O)O)cccn12 (configuration not stated)",
    "Target System": "Phospholipase A2 (Homo sapiens, UniProt P04054)",
    "pIC50": 7.77
  }
]

I. CCc1c(C(=O)C(N)=O)c2c(OCC(=O)O)cccn2c1Cc1ccccc1[N+](=O)[O-]
II. CCc1c(CC(N)=O)c2c(OCC(=O)O)cccn2c1Cc1cccc(Cl)c1
Input line: Please state the entry with greater pIC50 among I and II . Refer to your chosen item by its label in the answer.
Output line: II
(II: 7.82, I: 7.44)

A. CCCCC[C@H]1CCCC(Cc2c(CC)c(C(=O)C(N)=O)c3c(OCC(=O)O)cccn23)C1 (some centres not stated)
B. CCc1c(CC(N)=O)c2c(OCCCC(=O)O)cccn2c1Cc1ccccc1-c1ccccc1
C. CCc1c(C(=O)C(N)=O)c2cc(OCCC(=O)O)ccn2c1Cc1ccccc1-c1ccccc1
Input line: Arrange the 3 entries by pIC50 so the values rise. # respond with the labels, arranged in the requested order
Output line: C, B, A
(C: 6.62, B: 7.10, A: 7.60)

====

Biological target: Phospholipase A2 (Homo sapiens)
Test: Inhibition of recombinant human secretory phospholipase A2 (sPLA2), chromogenic screening assay.
pIC50: −log10 of the molar value.
Property Name: pIC50

[
  {
    "Compound": "Cc1c(C(=O)C(N)=O)c2c(OCC(=O)O)cccn2c1CC1CCCC1",
    "Property Name": "pIC50",
    "Obs Value": 7.85
  }
]

a. CCc1c(C(=O)C(N)=O)c2c(OCC(=O)O)cccn2c1Cc1cccs1
b. CCc1c(C(=O)C(N)=O)c2c(OCC(=O)OC)cccn2c1CCc1ccccc1
c. CCc1c(C(=O)C(N)=O)c2c(OCCCC(=O)O)cccn2c1CC1CCCCC1
d. COC(=O)COc1cccn2c(Cc3cccc4ccccc34)c(C3CC3)c(C(=O)C(N)=O)c12
e. Cc1c(C(=O)C(N)=O)c2c(OCC(=O)O)cccn2c1CC12C[C@H]3C[C@@H](C1)C[C@@H](C2)C3
Input line: Order the records by pIC50, with each subsequent value no larger than the one before. To answer, arrange all of the labels according to the requested order.
Output line: a, d, b, e, c
(a: 7.96, d: 7.64, b: 7.29, e: 6.92, c: 5.47)

A. CCc1c(C(=O)C(N)=O)c2c(OCC(=O)OC)cccn2c1Cc1ccccc1-c1ccccc1
B. CCc1c(C(=O)C(N)=O)c2c(OCc3ccccn3)cccn2c1Cc1ccccc1-c1ccccc1
Input line: Param metric = pIC50; output whichever of A , B has the minimum value. Write down the label of the entry you select.
Output line: B

A. COC(=O)COc1cccn2c(CC3CCCCC3)c(C3CC3)c(C(=O)C(N)=O)c12
B. CCc1c(CC(N)=O)c2c(OCC(=O)O)cccn2c1Cc1ccccc1
Input line: A or B : whose pIC50 is greater? Your answer should be the label of the entry you select.
Output line: B
(B: 7.89, A: 7.37)

P. CCc1c(C(=O)C(N)=O)c2c(OCC(=O)O)cccn2c1Cc1cccc(OC)c1
Q. CCc1c(C(=O)C(N)=O)c2c(OCC(=O)OC)cccn2c1C/C=C/c1ccccc1
Input line: Consider entries P and Q . Which has the numerically lower pIC50? The response must carry the label of the picked entry.
Output line: Q
(Q: 7.42, P: 7.68)

====

Assay: Inhibitory activity against recombinant human secretory phospholipase A2 (s-PLA2) by phosphatidylcholine/deoxycholate assay (PC/DOC).
pIC50: −log10 of the molar value.
Property Name: pIC50

[
  {
    "Molecule": "NC(=O)C(=O)c1c(C2CC2)c(Cc2ccccc2)n2cccc(OCC(=O)O)c12",
    "Obs Value": 7.31
  },
  {
    "Molecule": "NC(=O)C(=O)c1c(C2CC2)c(Cc2ccccc2-c2ccccc2)n2cccc(OCC(=O)O)c12",
    "Obs Value": 8.22
  },
  {
    "Molecule": "CCc1c(C(=O)C(N)=O)c2c(OCC(=O)O)cccn2c1Cc1ccccc1[N+](=O)[O-]",
    "Obs Value": 6.92
  },
  {
    "Molecule": "CCCC(C)Cc1c(CC)c(C(=O)C(N)=O)c2c(OCC(=O)O)cccn12 (stereo unspecified)",
    "Obs Value": 7.11
  },
  {
    "Molecule": "CCc1c(CC(N)=O)c2c(OCC(=O)O)cccn2c1Cc1ccccc1",
    "Obs Value": 7.55
  }
]

1. NC(=O)Cc1c(C2CC2)c(Cc2ccccc2-c2ccccc2)n2cccc(OCC(=O)O)c12
2. CCc1c(C(=O)C(N)=O)c2c(OCC(=O)O)cccn2c1CC1CCCCCC1
Input line: Between item 1 and item 2 , which reported pIC50 is smaller? Use the label to indicate which entry you chose.
Output line: 2

I. CCc1c(C(=O)C(N)=O)c2c(OCC(=O)O)cccn2c1Cc1cccc(OC)c1
II. CCc1c(C(=O)C(N)=O)c2c(OCC(=O)OC)cccn2c1C/C=C/c1ccccc1
Input line: Endpoint returns the identifier whose pIC50 is numerically larger, either I or II . Mark your answer with the label of the selected entry.
Output line: I

====

Biological target: Phospholipase A2 (Homo sapiens)
Experiment: Inhibition of recombinant human secretory Phospholipase A2 (s-PLA2)
Property Name: IC50 (nM)

The cases that follow already have their IC50 on record.
[
  {
    "Compound": "COC(=O)CCCOC1=CC=CN2C1=C(CC(N)=O)C(C)C2Cc1ccccc1 (configuration not stated)",
    "Measure Unit": "nM",
    "IC50": 15000
  },
  {
    "Compound": "CCC1C(CC(N)=O)=C2C(OCC(=O)O)=CC=CN2/C1=C\\c1ccc2ccccc2c1 (configuration not stated)",
    "Measure Unit": "nM",
    "IC50": 170
  },
  {
    "Compound": "CCC1C(C(N)=O)=C2C(OCC(=O)O)=CC=CN2/C1=C\\c1ccccc1Cc1ccccc1 (configuration not stated)",
    "Measure Unit": "nM",
    "IC50": 400
  },
  {
    "Compound": "CC1C(CC(N)=O)=C2C(OCCCC(=O)O)=CC=CN2/C1=C\\c1ccccc1 (configuration not stated)",
    "Measure Unit": "nM",
    "IC50": 910
  },
  {
    "Compound": "CC1C(CC(N)=O)=C2C(OCC(=O)O)=CC=CN2C1Cc1ccccc1 (configuration not stated)",
    "Measure Unit": "nM",
    "IC50": 12000
  }
]

1. CCC1C(CC(N)=O)=C2C(OCC(=O)O)=CC=CN2/C1=C\c1cccc2ccccc12 (configuration not stated)
2. CCc1c(C(=O)C(N)=O)c2c(OCc3ccc4ccccc4n3)cccn2c1Cc1ccccc1-c1ccccc1
Input line: Kindly identify which of 1 and 2 has the larger recorded IC50 value. State your choice using its label.
Output line: 2

====

Molecular target: Phospholipase A2 (Homo sapiens, UniProt P04054)
Test: Inhibition of recombinant human secretory phospholipase A2 (sPLA2), chromogenic screening assay.
Property Name: IC50 (nM)

[
  {
    "Compound": "COc1c(C(=O)C(N)=O)c2c(OCC(=O)O)cccn2c1Cc1ccccc1-c1ccccc1",
    "Measure Unit": "nM",
    "IC50": 15
  },
  {
    "Compound": "NC(=O)Cc1c(C2CC2)c(Cc2ccccc2-c2ccccc2)n2cccc(OCC(=O)O)c12",
    "Measure Unit": "nM",
    "IC50": 13
  },
  {
    "Compound": "CCc1c(C(=O)C(N)=O)c2c(OCC(=O)O)cccn2c1CC1CCCCC1",
    "Measure Unit": "nM",
    "IC50": 21
  }
]

A. CSc1c(C(=O)C(N)=O)c2c(OCC(=O)O)cccn2c1Cc1ccccc1-c1ccccc1
B. NC(=O)C(=O)c1c(C2CC2)c(CC2CCCC2)n2cccc(OCC(=O)O)c12
C. CCc1c(CC(N)=O)c2c(OCC(O)CC)cccn2c1Cc1cccc(Cl)c1 (centres undefined)
D. CCc1c(C(=O)C(N)=O)c2c(OCC(=O)O)cccn2c1Cc1ccccc1
Input line: Arrange by IC50, high to low. Order the labels as requested and list them.
Output line: C, B, A, D
(C: 19000 nM, B: 29 nM, A: 16 nM, D: 8 nM)
